Test system: NOMO1
Experiment: cell viability relative to DMSO control; higher = less cytotoxic
Details: RPMI 5 mM glucose + 10% dialyzed FBS; 48 h; 0.00702 µM
ASSAY METRIC: cell viability (%)

COMPOUND	TEST RESULT
COc1nc(-c2ccc3c(c2)OCO3)n(-c2ccc(NC(=O)CSc3ccccc3)cc2)n1	110
CN(C)CCOC(c1ccccc1)c1ccccc1	101
CC(=O)N1CCN(c2ccc(OCc3nn(C)c(C)c3-c3cccc4c(CCCOc5cc(C)c(Cl)c(C)c5)c(C(=O)O)n(Cc5cccnc5)c34)cc2)CC1	122
COc1cc2c(N3CCN(C(=O)Nc4ccc(OC(C)C)cc4)CC3)ncnc2cc1OCCCN1CCCCC1	75.4
CCCCN(CCCC)CCC(O)c1cc2c(Cl)cc(Cl)cc2c2cc(C(F)(F)F)ccc12 (centres undefined)	121
CC/1=C/N([C@@H]2C[C@@H](O)[C@H](CO)O2)C(=O)NC1=O	84.6
COc1cc(N2CCC(C(N)=O)CC2)ccc1Nc1nc(N)c(Cl)c(Nc2ccccc2[S+](=O)([O-])C(C)C)n1	90.9
CN(N=O)C(=O)N[C@H]1C(O)OC(CO)[C@@H](O)[C@@H]1O (some centres undefined)	74.3
NC1CCC(N[C@@H]2C[C@H]2c2ccccc2)CC1 (some centres undefined)	96
